tested_on: Glutaminase kidney isoform, mitochondrial (Homo sapiens) (UniProt O94925)
Sequence (O94925 whole entry, looked up, canonical isoform): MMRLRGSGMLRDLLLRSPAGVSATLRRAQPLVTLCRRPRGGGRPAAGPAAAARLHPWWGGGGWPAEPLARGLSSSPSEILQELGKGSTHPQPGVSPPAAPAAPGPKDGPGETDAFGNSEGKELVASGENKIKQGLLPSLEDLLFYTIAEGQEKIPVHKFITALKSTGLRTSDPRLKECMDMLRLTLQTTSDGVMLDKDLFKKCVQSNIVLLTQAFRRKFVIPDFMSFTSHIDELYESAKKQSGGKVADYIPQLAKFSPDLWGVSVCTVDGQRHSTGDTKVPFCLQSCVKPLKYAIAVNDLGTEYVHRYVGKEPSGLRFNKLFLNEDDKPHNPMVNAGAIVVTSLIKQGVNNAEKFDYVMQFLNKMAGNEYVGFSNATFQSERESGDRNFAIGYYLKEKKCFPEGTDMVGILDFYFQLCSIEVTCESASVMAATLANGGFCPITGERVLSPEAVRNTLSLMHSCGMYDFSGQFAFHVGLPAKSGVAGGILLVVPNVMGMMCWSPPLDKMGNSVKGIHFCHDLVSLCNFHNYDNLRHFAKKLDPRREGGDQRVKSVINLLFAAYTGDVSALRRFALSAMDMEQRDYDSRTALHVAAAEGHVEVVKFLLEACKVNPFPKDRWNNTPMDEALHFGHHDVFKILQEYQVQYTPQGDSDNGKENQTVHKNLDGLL
protocol_description: qHTS for Inhibitors of Glutaminase (GLS)
condition_info: GLS enzymatic activity, qHTS titration; series mostly up to 45.5 µM
The whole screen tested about 410,000 compounds, of which about 850 (0.21%) were called active. Not shown: some 2% with an inconclusive outcome. Calls come from the whole dose curve; as a rule, active = well fitted inhibition curve with a large enough effect; inconclusive = small, poorly fitted or top-dose-only effect, or another doubt; inactive = no such curve, though single readings can be large or run the other way. Only a selection was taken, and actives are over-represented in it overall.
Classes used: Y for active, N for inactive

• Cc1cccc(CCNC(=O)c2ccc3c(c2)nc2n3CCC(C)C2)c1 (centres undefined) = N
• Cc1cccc(C)c1N1CCN(S(=O)(=O)N2CCCCC2)CC1 = N
• Cc1ccc(S(=O)(=O)N2CCc3cc(C(=O)Nc4ccc(Cl)cc4C)ccc32)cc1 = N
• O=S(=O)(/C=C/c1ccccc1)N1CCNCC1 = N
• O=S(=O)(N1CCCCC1)N1CCNCC1 = Y
• C[N+](C)(CCOc1ccccc1)Cc1cccs1 (tested in a mixture with another compound) = N
• CC(=O)OC[C@H]1O[C@@H](O[C@H]2[C@H](O)[C@@H](OC(=O)c3ccccc3C(=O)O)[C@H](O)O[C@@H]2COC(C)=O)[C@H](O)[C@@H](OC(=O)c2ccccc2C(=O)O)[C@@H]1O = N
• CCCCCCCCCc1ccc(OCCOCCOCCOCCOCCOCCOCCOCCOCCO)cc1 = N
• Cc1nc(N2CCOCC2)c2c(C(=O)NCc3cccc(Cl)c3)c(C)oc2n1 = N

Data origin: PubChem BioAssay AID624170
